- Measurement protocol: High-throughput drug toxicity screening in the BPDCN cell line Cal-1 (AID 1224825);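 also: cells exposed to compounds for 48 h; 100% = DMSO and 0% = bortezomib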
- Conditions used: Cal-1 BPDCN cell viability, qHTS; at 45.8 µM (top of the series) unless noted
- Text: Blastic plasmacytoid dendritic cell neoplasm (BPDCN) is a rare, aggressive and largely incurable hematologic malignancy originating from plasmacytoid dendritic cells (pDCs). Although an initial response to chemotherapy is common, BPDCN prognosis is extremely poor and most patients relapse with drug-resistant disease leading to a median overall survival of ~1 year after diagnosis. […]
Consider the following molecules; for each one, report its viability (% of control).
Give bare numbers, in %.

{"Molecule": "COc1cc2c(cc1-c1c(C)noc1C)ncc1[nH]c(=O)n([C@H](C)c3ccccn3)c12", "Property measured": "viability (% of control)", "Unit name": "%", "Readout number": 7.22}
{"Molecule": "CC(=O)OCC(=O)[C@@]1(O)[C@H](C)C[C@H]2[C@@H]3C=C(C)C4=Cc5c(cnn5-c5ccccc5)C[C@]4(C)[C@@H]3[C@@H](O)C[C@@]21C", "Property measured": "viability (% of control)", "Unit name": "%", "Readout number": 45.8}
{"Molecule": "CC1(O)CC(c2nc(-c3ccc4ccc(-c5ccccc5)nc4c3)c3c(N)nccn23)C1 (centres undefined)", "Property measured": "viability (% of control)", "Unit name": "%", "Readout number": 8.23}
{"Molecule": "CCC(=C(c1ccccc1)c1ccc(OCCN(C)C)cc1)c1ccccc1", "Property measured": "viability (% of control)", "Unit name": "%", "Readout number": 23.2}
{"Molecule": "CCCNC(=O)Nc1ccc(Oc2ncnc3cc(OC)c(OC)cc23)cc1Cl", "Property measured": "viability (% of control)", "Unit name": "%", "Readout number": 92.7}
{"Molecule": "Cc1nc2ccc(CN(C)c3ccc(C(=O)N[C@@H](CCC(=O)O)C(=O)O)s3)cc2c(=O)[nH]1", "Property measured": "viability (% of control)", "Unit name": "%", "Readout number": 32.8}
{"Molecule": "O=c1c2ccccc2nc2n1CCc1c-2[nH]c2ccccc12", "Property measured": "viability (% of control)", "Unit name": "%", "Readout number": 72.9}
{"Molecule": "CC[C@H]1CN2CCc3cc(OC)c(OC)cc3[C@H]2C[C@@H]1C[C@@H]1NCCc2cc(OC)c(OC)cc21", "Property measured": "viability (% of control)", "Unit name": "%", "Readout number": 6.78}

Now consider a different molecule.
[ask] Item under review: CCC[C@H](NC(=O)C(C#N)=Cc1cccc(Br)n1)c1ccccc1 . Reported viability (% of control)?
[reply] 4.33
